We begin with pIC50 values for Cathepsin D (Homo sapiens, UniProt P07339), as collected from the published literature.
pIC50: −log10 of the molar value.
ATTRIBUTE_MEASURED: pIC50

Consider the worked cases shown below.
SMILES_INPUT: C[C@H](O)COc1cnc(/C(F)=C/c2ccc(F)c([C@]3(C)CS(=O)(=O)C(C)(C)C(N)=N3)c2)cn1
pIC50: 3.68

SMILES_INPUT: CC#CCOc1cnc(C(=O)Nc2ccc3c(c2)[C@@]2(CCOC(N)=N2)c2cc(Cl)nc(F)c2O3)cn1
pIC50: 3.82

SMILES_INPUT: CC#CCOc1cnc(C(=O)Nc2ccc(F)c([C@@]3(C)N=C(N)O[C@@H]4CCC(F)(F)[C@@H]43)c2)cn1
pIC50: 3.87

(P) CN1C(N)=N[C@](C)(c2cc(/C=C(\F)c3ccc(C#N)cn3)ccc2F)CS1(=O)=O
(Q) COc1cnc(C(=O)Nc2ccc3c(c2)[C@@]2(CCOC(N)=N2)c2cc(C4CCOCC4)cc(F)c2O3)cn1
Which of these two has the smaller recorded pIC50: P or Q ? State the label of the item chosen.
Q
(Q: 3.42, P: 3.74)

---

We begin with IC50 values for Cathepsin D (Homo sapiens, UniProt P07339), as collected from the published literature.
ATTRIBUTE_MEASURED: IC50 (µM)

Consider the worked cases shown below.
SMILES_INPUT: COc1cnc2c(Nc3ccc4c(c3)[C@@]3(CCSC(N)=N3)c3cc(-c5ccnc(F)c5)nc(F)c3O4)nccc2c1
IC50, µM: 338
--
SMILES_INPUT: NC1=N[C@@]2(CCO1)c1cc(NC(=O)c3ccc(Cl)cn3)ccc1Oc1ncc(-c3ccnc(F)c3)cc12
IC50, µM: 401
--
SMILES_INPUT: COc1cnc(C(=O)Nc2ccc3c(c2)[C@@]2(CCSC(N)=N2)c2cc(-c4ccnc(F)c4)nc(F)c2O3)cn1
IC50, µM: 400
--
SMILES_INPUT: CC1(C)C(N)=N[C@](C)(c2cc(/C=C(\F)c3ncc(C(F)(F)F)cc3Cl)ccc2F)CS1(=O)=O
IC50, µM: 117

(A) NC1=N[C@@]2(CCS1)c1cc(NC(=O)c3ccc(F)cn3)ccc1Oc1c2cc(-c2ccnc(F)c2)nc1F
(B) CC1(C)C(N)=N[C@](C)(c2cc(/C=C(\F)c3cnc(OCC4CCCC4)cn3)ccc2F)CS1(=O)=O
Between the entries labelled A and B , which has a larger IC50 value on record? State the label of the item chosen.
A

---

We begin with IC50 values for Cathepsin D (Homo sapiens, UniProt P07339), as collected from the published literature.

SMILES_INPUT: N#Cc1ccc(C(=O)Nc2ccc(F)c([C@@]3(C(F)F)N=C(N)O[C@@H]4CC(F)(F)C[C@@H]43)c2)nc1
IC50: > 200 µM
--
SMILES_INPUT: C=C(C)c1cc(C(=O)N[C@@H](Cc2ccccc2)[C@H](O)CNCc2cccc(C(F)(F)F)c2)cc(N(c2ccccc2)S(C)(=O)=O)c1
IC50: 0.2 to 2.5 µM

Please turn your attention to the following entry.
Sample COc1cnc(C(=O)Nc2ccc3c(c2)[C@@]2(CCOC(N)=N2)c2cc(Br)cnc2O3)cn1 — what was its IC50?
> 1.65 µM
